- run_description: recombinant UMI read abundance after kanamycin selection (control-corrected) (log10(CPM+1)); higher = more efficient recombination; extreme values may be limits of the assay; sequences stand for … in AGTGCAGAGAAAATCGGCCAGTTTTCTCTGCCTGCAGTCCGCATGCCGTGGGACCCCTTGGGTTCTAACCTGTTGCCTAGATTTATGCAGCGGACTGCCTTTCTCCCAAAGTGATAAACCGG…AGGTTGGTTTCACT; site = the 11-nt donor;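 also: IS621 bridge recombinase in Escherichia coli cells against a fixed T5 target plasmid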
Class (required): determined from recombinant UMI read abundance (log10); valid ranges are lower band = under 0.003, central band = from 0.003 up to 0.4, upper band = 0.4 and over

>  <sequence_chain>
CCGGTATCATGGACCGGTTTTCCCGGTAATCCGTATTTGAC (site CTAGTATCTGT)

>  <cat>
lower band

$$$$
>  <sequence_chain>
CTAGTATCATGGACCGGTTTTCCCGGTAATCCGTATTTGTC (site CTAGTATCTGT)

>  <cat>
upper band

$$$$
>  <sequence_chain>
GATTATGCATGGACCGGTTTTCCCGGTAATCCGTATTTGGA (site CATTATGCTTC)

>  <cat>
upper band

$$$$
>  <sequence_chain>
TGGCCTTCATGGACCGGTTTTCCCGGTAATCCGTATTTGGT (site TAGCCTTCTAC)

>  <cat>
lower band

$$$$
>  <sequence_chain>
CCCCACACATGGACCGGTTTTCCCGGTAATCCGTATTTGTG (site CCCCACACTCA)

>  <cat>
central band

$$$$
>  <sequence_chain>
ACAGTCTCATGGACCGGTTTTCCCGGTAATCCGTATTTGGA (site ACAGTATCTTG)

>  <cat>
lower band

$$$$
>  <sequence_chain>
TAAGAATCATGGACCGGTTTTCCCGGTAATCCGTATTTGCG (site TATGAATCTCG)

>  <cat>
upper band

$$$$
>  <sequence_chain>
GCGATAACATGGACCGGTTTTCCCGGTAATCCGTATTTGCT (site GCGAAAACTAG)

>  <cat>
lower band

$$$$
>  <sequence_chain>
TGGTTATCATGGACCGGTTTTCCCGGTAATCCGTATTTGGT (site TGGTTATCTAC)

>  <cat>
upper band

$$$$
>  <sequence_chain>
CCCTTCTCATGGACCGGTTTTCCCGGTAATCCGTATTTGGA (site CCCTTCTCTTC)

>  <cat>
central band

$$$$
>  <sequence_chain>
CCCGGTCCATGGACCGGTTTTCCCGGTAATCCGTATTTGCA (site CCCGGGCCTTG)

>  <cat>
central band

$$$$
>  <sequence_chain>
ACGCGGACATGGACCGGTTTTCCCGGTAATCCGTATTTGCA (site ACGCGGACTTG)

>  <cat>
upper band

$$$$
>  <sequence_chain>
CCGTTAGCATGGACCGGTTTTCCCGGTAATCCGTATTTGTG (site CCGTTAGCTCC)

>  <cat>
central band

$$$$
>  <sequence_chain>
CGCCTAGCATGGACCGGTTTTCCCGGTAATCCGTATTTGTT (site AGCCTAGCTAA)

>  <cat>
central band

$$$$
>  <sequence_chain>
GTAATCGCATGGACCGGTTTTCCCGGTAATCCGTATTTGCG (site GTACTCGCTCG)

>  <cat>
central band

$$$$
>  <sequence_chain>
ACTACACCATGGACCGGTTTTCCCGGTAATCCGTATTTGGT (site ACTACACCTAC)

>  <cat>
lower band

$$$$
>  <sequence_chain>
ACAATCTCATGGACCGGTTTTCCCGGTAATCCGTATTTGCA (site ACAGTATCTTG)

>  <cat>
upper band

$$$$
>  <sequence_chain>
TCACGCACATGGACCGGTTTTCCCGGTAATCCGTATTTGCT (site TCACGCACTAG)

>  <cat>
upper band

$$$$
>  <sequence_chain>
ACCTCAGCATGGACCGGTTTTCCCGGTAATCCGTATTTGGG (site AACTCAGCTCC)

>  <cat>
central band

$$$$
>  <sequence_chain>
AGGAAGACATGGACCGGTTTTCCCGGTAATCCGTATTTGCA (site GGGAAGACTAG)

>  <cat>
lower band

$$$$
>  <sequence_chain>
AACCGTCCATGGACCGGTTTTCCCGGTAATCCGTATTTGCT (site AACCGTCCTAA)

>  <cat>
central band

$$$$
>  <sequence_chain>
GGCTAGACATGGACCGGTTTTCCCGGTAATCCGTATTTGAC (site GGCTAGACTGT)

>  <cat>
upper band

$$$$
>  <sequence_chain>
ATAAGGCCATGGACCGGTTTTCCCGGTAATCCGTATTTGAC (site ATAAAGCCTGT)

>  <cat>
lower band

$$$$
>  <sequence_chain>
TGAACACCATGGACCGGTTTTCCCGGTAATCCGTATTTGAC (site TGCACACCTGT)

>  <cat>
lower band

$$$$
>  <sequence_chain>
GCCTCCGCATGGACCGGTTTTCCCGGTAATCCGTATTTGAG (site GCCTCCGCTCT)

>  <cat>
central band

$$$$
>  <sequence_chain>
TTGCGGGCATGGACCGGTTTTCCCGGTAATCCGTATTTGGA (site TTGCGGGCTTC)

>  <cat>
central band

$$$$

---

- run_description: recombinant UMI read abundance after kanamycin selection (control-corrected) (log10(CPM+1)); higher = more efficient recombination; extreme values may be limits of the assay; sequences stand for … in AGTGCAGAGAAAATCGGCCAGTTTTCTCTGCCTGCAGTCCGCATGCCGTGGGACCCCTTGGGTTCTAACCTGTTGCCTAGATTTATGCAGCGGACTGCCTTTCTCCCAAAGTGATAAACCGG…AGGTTGGTTTCACT; site = the 11-nt donor
measure: recombinant UMI read abundance (log10)

>  <sequence_chain>
GAGTCGACATGGACCGGTTTTCCCGGTAATCCGTATTTGGG (site TAGTCGACTCC)

>  <experimental_value>
0.0071

$$$$
>  <sequence_chain>
GTGGAGGCATGGACCGGTTTTCCCGGTAATCCGTATTTGAG (site GTGGAGGCTCT)

>  <experimental_value>
1.57

$$$$
>  <sequence_chain>
AAGCTAGCATGGACCGGTTTTCCCGGTAATCCGTATTTGAA (site CAGCTAGCTTT)

>  <experimental_value>
1.37

$$$$
>  <sequence_chain>
TAGAATACATGGACCGGTTTTCCCGGTAATCCGTATTTGAA (site TAGAATACTTG)

>  <experimental_value>
0

$$$$
>  <sequence_chain>
CCAAAAGCATGGACCGGTTTTCCCGGTAATCCGTATTTGAT (site CCAAAAGCTAT)

>  <experimental_value>
1.34

$$$$
>  <sequence_chain>
CTCTACACATGGACCGGTTTTCCCGGTAATCCGTATTTGTT (site CTCTACACTAC)

>  <experimental_value>
0.0026

$$$$
>  <sequence_chain>
CGTGGTACATGGACCGGTTTTCCCGGTAATCCGTATTTGTT (site CGTGGCACTAA)

>  <experimental_value>
0.0912

$$$$
>  <sequence_chain>
GTAGGTACATGGACCGGTTTTCCCGGTAATCCGTATTTGAT (site GTAGGTACTAT)

>  <experimental_value>
1.87

$$$$
>  <sequence_chain>
CCGTTTGCATGGACCGGTTTTCCCGGTAATCCGTATTTGCT (site CCGTTTTCTAG)

>  <experimental_value>
0

$$$$

---

- run_description: recombinant UMI read abundance after kanamycin selection (control-corrected) (log10(CPM+1)); higher = more efficient recombination; extreme values may be limits of the assay; sequences stand for … in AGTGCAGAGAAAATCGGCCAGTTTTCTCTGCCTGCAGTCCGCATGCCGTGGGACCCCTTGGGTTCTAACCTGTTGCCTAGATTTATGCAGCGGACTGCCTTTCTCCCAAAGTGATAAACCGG…AGGTTGGTTTCACT; site = the 11-nt donor
// label = Criterion met if recombinant UMI read abundance (log10) is not less than 0.03, otherwise Criterion not met

>  <sequence_chain>
GGTGACCCATGGACCGGTTTTCCCGGTAATCCGTATTTGCA (site GGTGACCCTTG)

>  <cat>
Criterion met

$$$$
>  <sequence_chain>
GTTAGATCATGGACCGGTTTTCCCGGTAATCCGTATTTGGC (site GTTAGAGCTGC)

>  <cat>
Criterion not met

$$$$
>  <sequence_chain>
ACACATCCATGGACCGGTTTTCCCGGTAATCCGTATTTGAA (site ACACATCCTTT)

>  <cat>
Criterion met

$$$$
>  <sequence_chain>
AGGAAGACATGGACCGGTTTTCCCGGTAATCCGTATTTGTA (site AGGAAGACTTA)

>  <cat>
Criterion met

$$$$
>  <sequence_chain>
CGGGAACCATGGACCGGTTTTCCCGGTAATCCGTATTTGCT (site CGGGAACCTAG)

>  <cat>
Criterion not met

$$$$
>  <sequence_chain>
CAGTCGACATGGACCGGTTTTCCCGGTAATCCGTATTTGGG (site CAGTCGGCTCC)

>  <cat>
Criterion met

$$$$
>  <sequence_chain>
GTATGGACATGGACCGGTTTTCCCGGTAATCCGTATTTGTA (site GTATGTACTTA)

>  <cat>
Criterion met

$$$$
>  <sequence_chain>
ACGTAGGCATGGACCGGTTTTCCCGGTAATCCGTATTTGAA (site ACGTAGGCTTT)

>  <cat>
Criterion met

$$$$
>  <sequence_chain>
CAACAGACATGGACCGGTTTTCCCGGTAATCCGTATTTGAA (site CAACAGACTTT)

>  <cat>
Criterion met

$$$$
>  <sequence_chain>
CGATCATCATGGACCGGTTTTCCCGGTAATCCGTATTTGGG (site CGATCATCTCC)

>  <cat>
Criterion not met

$$$$
>  <sequence_chain>
CCCATAGCATGGACCGGTTTTCCCGGTAATCCGTATTTGTC (site CCCATAGCTGA)

>  <cat>
Criterion met

$$$$
>  <sequence_chain>
ACCTGAACATGGACCGGTTTTCCCGGTAATCCGTATTTGGC (site ACCTGAACTGC)

>  <cat>
Criterion met

$$$$
>  <sequence_chain>
GTTTCGGCATGGACCGGTTTTCCCGGTAATCCGTATTTGGT (site GTTTCGGCTAC)

>  <cat>
Criterion met

$$$$
>  <sequence_chain>
TGGTGATCATGGACCGGTTTTCCCGGTAATCCGTATTTGGG (site TGGTGATCTCC)

>  <cat>
Criterion met

$$$$
>  <sequence_chain>
ATGTAGCCATGGACCGGTTTTCCCGGTAATCCGTATTTGTT (site ATGTAGCCTAA)

>  <cat>
Criterion met

$$$$
>  <sequence_chain>
TGCTAGGCATGGACCGGTTTTCCCGGTAATCCGTATTTGAT (site TGCTAGGCTAC)

>  <cat>
Criterion not met

$$$$
>  <sequence_chain>
CGTGGAGCATGGACCGGTTTTCCCGGTAATCCGTATTTGTT (site CGTGGACCTAA)

>  <cat>
Criterion not met

$$$$
>  <sequence_chain>
GTATGCGCATGGACCGGTTTTCCCGGTAATCCGTATTTGTA (site GTATGCACTTA)

>  <cat>
Criterion met

$$$$
>  <sequence_chain>
AAATAAGCATGGACCGGTTTTCCCGGTAATCCGTATTTGGG (site AAATAAGCTCC)

>  <cat>
Criterion met

$$$$
>  <sequence_chain>
TCAGTAACATGGACCGGTTTTCCCGGTAATCCGTATTTGTA (site TCAGTAACTTA)

>  <cat>
Criterion met

$$$$
>  <sequence_chain>
TAGGAGTCATGGACCGGTTTTCCCGGTAATCCGTATTTGCG (site TAGGACTCTCG)

>  <cat>
Criterion met

$$$$
>  <sequence_chain>
AGCCTTACATGGACCGGTTTTCCCGGTAATCCGTATTTGAC (site AGCCTTCCTGT)

>  <cat>
Criterion not met

$$$$
>  <sequence_chain>
AAGCACTCATGGACCGGTTTTCCCGGTAATCCGTATTTGGG (site AAGCACTCTCC)

>  <cat>
Criterion met

$$$$
>  <sequence_chain>
GGCCACTCATGGACCGGTTTTCCCGGTAATCCGTATTTGTT (site GGCCACACTAA)

>  <cat>
Criterion not met

$$$$
>  <sequence_chain>
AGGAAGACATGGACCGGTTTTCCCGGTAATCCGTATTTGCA (site AGGAGCACTTG)

>  <cat>
Criterion not met

$$$$
>  <sequence_chain>
AGGCCTACATGGACCGGTTTTCCCGGTAATCCGTATTTGAC (site AGGGCTACTGT)

>  <cat>
Criterion not met

$$$$
>  <sequence_chain>
GTGTGCACATGGACCGGTTTTCCCGGTAATCCGTATTTGTA (site GTCTGCACTTA)

>  <cat>
Criterion not met

$$$$
>  <sequence_chain>
AAAGTAACATGGACCGGTTTTCCCGGTAATCCGTATTTGCA (site ACAGTATCTTG)

>  <cat>
Criterion met

$$$$
>  <sequence_chain>
GCTACTCCATGGACCGGTTTTCCCGGTAATCCGTATTTGCC (site GCTACTGCTGG)

>  <cat>
Criterion not met

$$$$
>  <sequence_chain>
GATAGAACATGGACCGGTTTTCCCGGTAATCCGTATTTGGC (site GATAGAACTGC)

>  <cat>
Criterion met

$$$$
>  <sequence_chain>
CCTAAAGCATGGACCGGTTTTCCCGGTAATCCGTATTTGAC (site CCTAAAGCTAT)

>  <cat>
Criterion not met

$$$$
